# System: SNB-19 CNS
# PROTOCOL SUMMARY: NCI-60 one-dose screen, 48 h (100 = growth as untreated, 0 = no growth, -100 = all killed)
# RECORDED CONDITIONS: 10 µM unless noted
About 83,000 compounds went through this panel and 20% of them were active in at least one assay; those are over-represented in the sample as a whole.
RECORDED METRIC: growth (%)
Numbers only here, please. The scale is %.

Some compounds with known growth results, for comparison:
| MOLECULE SMILES | DISPLAY UNIT | growth |
| --- | --- | --- |
| C=C1C(=O)O[C@H]2[C@H]1CC/C(COC(=O)NCc1cc(OC)c(OC)c(OC)c1)=C\CC[C@@]1(C)O[C@@H]21 | % | 72.8 |
| COc1ccc(-c2nc3sccn3c2-c2ccnc(NCCCNS(=O)(=O)c3ccc(C)cc3)n2)cc1 | % | 71.7 |

Asked: Notebook entry, SNB-19 CNS assay: growth of Cc1cccc(NC(=O)c2sc3nc4c(cc3c2N)CCC4)c1C = ?
Given back: 38

Asked: Now consider NC(=O)NNC(=O)c1ccccc1 and answer again.
Given back: 111

Asked: And what about the compound Nc1nc(Cl)c2c(ncn2Cc2ccc(CCl)cc2)n1 ?
Given back: 93.2

----------
# System: IGROV1 ovarian
# PROTOCOL SUMMARY: NCI-60 one-dose screen, 48 h (100 = growth as untreated, 0 = no growth, -100 = all killed)
# RECORDED CONDITIONS: 10 µM unless noted
Compounds without any hit were thinned out: in the full panel of roughly 83,000, 20% have a hit.
This section presents compounds with their documented growth values.
Just the number please, in %, no unit attached.

Field: example entries. Status: answers known.
| COMPOUND | TARGET ENTITY | VALUE OBSERVED |
| --- | --- | --- |
| CC(Cc1nnc(SCC(=O)Nc2ccc(I)cc2)n1N)c1ccccc1 (stereo not given) | IGROV1 ovarian | 8.44 |
| COc1cc(C2C=C(C)N=C3SC=C(C)N32)cc(OC)c1OC (stereo not given) | IGROV1 ovarian | -49.8 |
| CSc1ccccc1C#C/C=C\C#Cc1ccccc1N1CCCC1=O | IGROV1 ovarian | -32.2 |
| C=CCOc1ccc(/C(O)=C2\C(=O)C(=O)N(c3nccs3)C2c2ccccc2F)cc1 (stereo not given) | IGROV1 ovarian | 3.7 |

Asked: Request the reported growth associated with CCOC(=O)[C@H](CSSc1ncnc2cc[nH]c12)NC(=O)[C@@H](C)c1ccc2cc(OC)ccc2c1
Given back: 41.3

----------
// reported growth for each item listed
# Tested on: HCT-15 colon
# PROTOCOL SUMMARY: NCI-60 one-dose screen, 48 h (100 = growth as untreated, 0 = no growth, -100 = all killed)
# RECORDED CONDITIONS: 10 µM unless noted
Compounds without any hit were thinned out: in the full panel of roughly 83,000, 20% have a hit. Active and inactive are the calls of the source. Rule for the calls: active = growth percent below 10; inactive = the rest.

| COMPOUND | growth |
| --- | --- |
| COc1ccc(-c2nc(-c3ccccc3)c(-c3ccccc3)n2C2CC2)cc1OC1CCCCC1 | 41.7% (inactive) |
| CC1CCN(C(=O)CSc2nc3sc4c(c3c(=O)[nH]2)CCCC4)CC1 | 102% (inactive) |
| CCN1C(=O)N[C@H]2[C@@H]3NC(=O)c4ccc(Cl)n4[C@@H]3C[C@]21O | 13.4% (inactive) |
| COC1=CC(c2ccc[nH]2)=N/C1=C\c1[nH]c(C)c(CCCn2cc(CCCCCCCCC[C@@H]3Cc4cc(O)ccc4C4CC[C@]5(C)[C@@H](O)CC[C@H]5C43)nn2)c1C (stereo not given in full) | 35% (inactive) |
| C#CCC1(c2ccc(F)c(F)c2)NS(=O)(=O)c2ccccc21 (stereo not given) | 103% (inactive) |

Asked: I am curious: what growth value has been reported for COc1ccc(/C=C2\C(=O)N(C(=O)c3csc(NC(C)=O)n3)N=C2C)cc1 ?
Given back: 103% (inactive)

Asked: Queued: COc1cc(/C=C\c2cc(OC)c(OC)c(OC)c2)cc(N/C=C\C(=O)c2c[nH]c3ccccc23)c1OC
Given back: -39% (active)

Asked: Can you handle COc1cc(NC(=O)c2cc3ccccc3nc2Nc2ccc(F)cc2)cc(OC)c1OC next?
Given back: 31.8% (inactive)

Asked: What about COc1cc(-n2nc(C(=O)Nc3ccc(C(=O)O)cc3)nc2-c2ccccc2)cc(OC)c1OC ?
Given back: 89.3% (inactive)

Asked: What do you have for CCn1cc(C(=O)O)c(=O)c2cc(F)c(N3CCN(S(=O)(=O)c4ccc(Cl)cc4Cl)CC3)cc21 ?
Given back: 7.58% (active)

Asked: Param item: O=C1CCCCN1CCCCC#Cc1ccccc1C#Cc1ccc([N+](=O)[O-])cc1
Given back: 17.4% (inactive)

Asked: How about CC1CCc2c(sc(NC(=O)CSc3nnc4ccccn34)c2C(N)=O)C1 (stereo not given) ?
Given back: 106% (inactive)

Asked: Same for c1cc(-c2ccc3c(c2)OCO3)n2nccc2n1
Given back: 97.2% (inactive)

----------
# Tested on: NCI/ADR-RES ovarian
# PROTOCOL SUMMARY: NCI-60 one-dose screen, 48 h (100 = growth as untreated, 0 = no growth, -100 = all killed)
# RECORDED CONDITIONS: 10 µM unless noted
The panel holds about 83,000 compounds, 20% with a hit somewhere; the sample as a whole holds those more often.
Measured growth, listed per entry.
Only the number, expressed in %, is required.

| MOLECULE | VALUE OBSERVED |
| --- | --- |
| O=C(c1ccccc1)C(Cl)C(Cl)c1ccccc1 (centres undefined) | 80.2 |
| CC[C@]1(O)C[C@@H]2CN(Cc3c([nH]c4ccccc34)[C@@](C(=O)OC)(c3cc4c(cc3OC)N(C)[C@H]3[C@@](O)(C(=O)OC)[C@H](OC(C)=O)[C@]5(CC)[C@@H]6C[C@@H]6CN6CC[C@]43[C@@H]65)C2)C1 | 93.8 |
| NC(=O)c1c(NC(=O)c2ccc3c(c2)OCO3)sc2c1CCC(=O)C2 | -6.35 |
| COc1ccc(C(=O)c2cc(OC)c(OC)c(OC)c2)cc1/C=C/C(=O)c1ccc(O)cc1 | 16.2 |

Asked: Query (molecule): COc1ccc2c(c1)C(C)Cc1c(N(C)C)ncnc1N2C (centres undefined) ; field requested: growth
Given back: 36.2

Asked: Another molecule to look at: O=C(Nc1cc(C(F)(F)F)cc(C(F)(F)F)c1)Nc1ccc(OCc2nnc(-c3ccc(Cl)cc3)o2)c(F)c1
Given back: 4.95

Asked: What would you report for COc1ccc(NC(=O)/N=c2\oc3c(OC)cccc3cc2-c2cc3ccccc3[nH]2)cc1 ?
Given back: 57.7

Asked: Could you do the same for CCOC(=O)[C@H](CSSc1ncnc2cc[nH]c12)NC(=O)[C@@H](C)c1ccc2cc(OC)ccc2c1 , please?
Given back: 18.6

Asked: Next: Nc1c(C(=O)Nc2c(Cl)cccc2Cl)sc2nc3c(cc12)CCCCC3
Given back: 53.5

----------
# Tested on: A498 renal
# PROTOCOL SUMMARY: NCI-60 one-dose screen, 48 h (100 = growth as untreated, 0 = no growth, -100 = all killed)
# RECORDED CONDITIONS: 10 µM unless noted
# Protocol: Growth inhibition of the A498 human tumor cell line is measured as a screen for anti-cancer activity. Cells are grown in 96 well plates and exposed to the test compound for 48 hours. Compounds are tested at a single concentration, which is 10^-5 M for most compounds. The reported endpoint is percent growth (GI% or GIPRCNT), where numbers from 0 - 100% represent growth inhibition, and numbers from -100% - 0 represent cell death. For example, a value of 40 represents 60% growth inhibition. […]
The panel holds about 83,000 compounds, 20% with a hit somewhere; the sample as a whole holds those more often.
RECORDED METRIC: growth (%)
Kindly provide the numeric value in % only, without the unit symbol.

Sample records with growth:
| MOLECULE SMILES | VALUE OBSERVED |
| --- | --- |
| O=c1oc2c([nH]c3ccc4ccccc4c32)c2ccccc12 | 106 |
| CC(=O)/C=C/c1cc2cc(Cl)ccc2[nH]c1=O | 90.2 |
| CCN(CC)CCSc1c2ccc(Cl)cc2nc2ccc(OC)cc12 | 100 |
| CCn1cc(C(=O)O)c(=O)c2cc(F)c(N3CCN(S(=O)(=O)c4ccc(OC)c(OC)c4)CC3)cc21 | 90.4 |
| O=Nc1c(-c2c(O)[nH]c3ccc([N+](=O)[O-])cc23)[nH]c2ccc(O)cc12 | -24.5 |

Could you now look at the following compound, please?
Asked: Give growth (A498 renal) of the following compound: CCCCCCc1nc2c(c(C)nn2-c2ccccc2)c2c1CCCCC2
Given back: 104

Attribution: PubChem BioAssay (NCI)
